# Tested Target: CYP3A4 (Homo sapiens)
# Sequence (P08684 whole entry): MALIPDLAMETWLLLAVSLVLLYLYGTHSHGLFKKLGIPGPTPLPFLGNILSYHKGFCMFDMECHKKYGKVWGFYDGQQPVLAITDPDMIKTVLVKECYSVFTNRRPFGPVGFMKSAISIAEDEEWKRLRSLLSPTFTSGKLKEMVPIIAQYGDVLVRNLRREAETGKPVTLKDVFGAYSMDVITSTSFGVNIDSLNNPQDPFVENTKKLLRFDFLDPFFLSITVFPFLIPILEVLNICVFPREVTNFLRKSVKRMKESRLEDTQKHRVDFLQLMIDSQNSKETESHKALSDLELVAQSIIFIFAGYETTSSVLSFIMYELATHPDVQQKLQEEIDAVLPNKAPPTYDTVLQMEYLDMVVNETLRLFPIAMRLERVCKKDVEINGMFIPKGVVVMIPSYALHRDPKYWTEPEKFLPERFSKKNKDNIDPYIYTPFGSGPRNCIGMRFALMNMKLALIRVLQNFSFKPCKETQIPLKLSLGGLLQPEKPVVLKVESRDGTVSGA
# Assay Name: Inhibition of recombinant CYP3A4 at 1 uM
# Format: ADME
Measured Quantity: inhibition at 1 µM (%)
The response must be a number in % with no trailing unit.

CC(c1ccc(-c2ccsc2)cc1)n1ccnc1 (stereo not given)    80

Request: Recall the recorded inhibition at 1 µM for C[C@]12CC[C@H](O)CC1=CC[C@@H]1[C@@H]2CC[C@]2(C)C(c3cccnc3)=CC[C@@H]12 with CYP3A4 (Homo sapiens) and state it.
Response: 4

====

Overview of reported AUC(0-inf) across a group of molecules:
# Assay Name: AUC (0 to infinity) in Wistar rat at 50 mg/kg, po
# Format: ADME, organism-based
# Set-up: time infinity, dose 50 mg/kg, route oral
# Measurement Setup: plasma
Write the number in ng·h/mL without appending the unit.

Would you please look over these solved cases?
CC(c1ccc(-c2ccsc2)cc1)n1ccnc1 (stereo not drawn)    24900
C[C@]12CC[C@H](O)CC1=CC[C@@H]1[C@@H]2CC[C@]2(C)C(c3cccnc3)=CC[C@@H]12 [ABIRATERONE]    4020

Request: // returns reported AUC(0-inf) for input CCC(c1ccc(-c2ccsc2)cc1)n1ccnc1 (stereo not drawn)
Response: 6700
